Hello, the source for this data is the Immune Epitope Database (IEDB), in case you need it.

- system: HLA-A*03:01
- test-description: IEDB peptide-MHC binding, purified MHC/direct/fluorescence; filed as Kd, often an IC50 or EC50 that approximates it; bounds were set here for any values at or beyond the usual limits of such assays
- assay-setup: source organism: Yellow fever virus
value-kind: Kd

[ask] Item VNRWLFRHL has what recorded Kd?
[reply] ≥ 20 µM

====

- system: HLA-A*31:01
- test-description: IEDB peptide-MHC binding, purified MHC/competitive/radioactivity; filed as Kd, often an IC50 or EC50 that approximates it; bounds were set here for any values at or beyond the usual limits of such assays
- assay-setup: source organism: Mammarenavirus guanaritoense
value-kind: Kd (nM)
All answers are understood in nM, so give the number only.

[ask] Item ECYVQRFFLR has what recorded Kd?
[reply] 6
